experimental_readout: IC50 (nM)
Respond numerically; units are nM and should not be typed.

Enter reported IC50 observed with mTOR (Homo sapiens (Human), UniProt P42345) for CCc1ncnc(N2CCNC(=O)C2)c1C#Cc1ccc(N)nc1 [Example H-4] 45

Observed IC50 on mTOR (Homo sapiens (Human), UniProt P42345) for COC1CCN(c2ncnc(C)c2C#Cc2ccc(N)nc2)CC1 , please. 18

Record CCc1ncnc(N2CCC(O)(C3CCCCC3)CC2)c1C#Cc1ccc(N)nc1 : what is its IC50 with mTOR (Homo sapiens (Human), UniProt P42345)? 16

Query IC50 on mTOR (Homo sapiens (Human), UniProt P42345) for CCN(C)C(=O)CC1CCN(c2ncnc(C)c2C#Cc2ccc(N)nc2)CC1 53

Lookup: IC50 / mTOR (Homo sapiens (Human), UniProt P42345) / CCc1ncnc(N2CCC(COC)CC2)c1C#Cc1ccc(N)nc1 19

Recall the recorded IC50 for CCc1ncnc(N2CCC(=O)CC2)c1C#Cc1ccc(N)nc1 with mTOR (Homo sapiens (Human), UniProt P42345) and state it. 28

// lookup IC50 | system=mTOR (Homo sapiens (Human), UniProt P42345) | key= Cc1ncnc(N2CCOC(C)(C)C2)c1C#Cc1ccc(N)nc1 105

Query for mTOR (Homo sapiens (Human), UniProt P42345): what IC50 does the record show for CCc1ncnc(N2CCn3c(COC)nnc3C2)c1C#Cc1ccc(N)nc1 ? 127

Notebook entry, mTOR (Homo sapiens (Human), UniProt P42345) assay: IC50 of CCc1ncnc(N2CCC3(CCN(C(=O)COC)CC3)CC2)c1C#Cc1ccc(N)nc1 = ? 32

###

# target_or_test_system: PI3Kalpha (Homo sapiens (Human), UniProt P42336)
# Sequence (P42336 whole entry, species assumed): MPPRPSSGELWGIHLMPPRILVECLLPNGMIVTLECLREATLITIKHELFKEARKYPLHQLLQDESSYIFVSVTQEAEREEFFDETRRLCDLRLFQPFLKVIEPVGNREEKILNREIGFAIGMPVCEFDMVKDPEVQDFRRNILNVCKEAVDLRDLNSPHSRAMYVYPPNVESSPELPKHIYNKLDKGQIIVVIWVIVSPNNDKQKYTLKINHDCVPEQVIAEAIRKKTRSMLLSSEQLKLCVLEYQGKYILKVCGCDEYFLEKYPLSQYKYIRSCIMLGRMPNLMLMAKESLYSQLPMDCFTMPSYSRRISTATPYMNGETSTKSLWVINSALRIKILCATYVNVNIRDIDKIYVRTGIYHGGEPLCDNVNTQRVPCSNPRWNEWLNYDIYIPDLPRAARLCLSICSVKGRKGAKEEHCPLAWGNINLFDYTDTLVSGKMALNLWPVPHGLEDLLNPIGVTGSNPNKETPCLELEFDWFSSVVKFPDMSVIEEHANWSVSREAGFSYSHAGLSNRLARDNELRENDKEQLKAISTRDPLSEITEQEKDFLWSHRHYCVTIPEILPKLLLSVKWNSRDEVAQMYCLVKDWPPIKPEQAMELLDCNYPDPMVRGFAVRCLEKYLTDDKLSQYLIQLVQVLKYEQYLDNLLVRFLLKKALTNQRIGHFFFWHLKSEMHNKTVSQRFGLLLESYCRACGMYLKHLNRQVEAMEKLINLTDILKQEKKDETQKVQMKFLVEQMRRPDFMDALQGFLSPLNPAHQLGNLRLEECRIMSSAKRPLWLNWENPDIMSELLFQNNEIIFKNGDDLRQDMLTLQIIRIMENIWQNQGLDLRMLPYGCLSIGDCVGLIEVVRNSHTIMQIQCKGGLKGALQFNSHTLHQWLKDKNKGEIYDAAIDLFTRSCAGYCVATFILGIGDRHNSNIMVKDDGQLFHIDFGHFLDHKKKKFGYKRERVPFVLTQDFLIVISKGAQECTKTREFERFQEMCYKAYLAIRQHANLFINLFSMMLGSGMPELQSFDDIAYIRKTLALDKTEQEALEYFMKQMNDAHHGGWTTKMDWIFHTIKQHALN
# Sequence (P27986 whole entry partner, species assumed): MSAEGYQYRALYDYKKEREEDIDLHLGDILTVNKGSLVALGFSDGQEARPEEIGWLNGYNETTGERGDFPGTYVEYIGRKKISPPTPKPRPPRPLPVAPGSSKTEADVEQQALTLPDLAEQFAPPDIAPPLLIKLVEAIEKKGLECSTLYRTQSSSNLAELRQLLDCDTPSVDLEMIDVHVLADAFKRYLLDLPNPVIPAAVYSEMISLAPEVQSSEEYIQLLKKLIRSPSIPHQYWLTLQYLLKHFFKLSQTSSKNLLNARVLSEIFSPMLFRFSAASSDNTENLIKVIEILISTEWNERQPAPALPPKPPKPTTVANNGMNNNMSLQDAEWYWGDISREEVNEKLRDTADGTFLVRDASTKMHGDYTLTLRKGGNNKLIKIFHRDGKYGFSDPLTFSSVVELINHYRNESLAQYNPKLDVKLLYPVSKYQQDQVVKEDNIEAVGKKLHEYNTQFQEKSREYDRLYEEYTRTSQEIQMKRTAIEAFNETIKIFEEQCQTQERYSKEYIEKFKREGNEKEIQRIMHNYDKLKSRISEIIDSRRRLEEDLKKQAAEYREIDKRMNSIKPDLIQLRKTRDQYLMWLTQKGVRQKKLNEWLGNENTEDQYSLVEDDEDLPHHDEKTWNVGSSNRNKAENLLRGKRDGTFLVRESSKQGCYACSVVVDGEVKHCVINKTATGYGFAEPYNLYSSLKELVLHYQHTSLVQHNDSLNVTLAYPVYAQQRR
# test: Inhibition of PI3Kalpha-induced PIP-2 phosphorylation (filter-binding assay)
# Format: biochemical
# experimental_context: 33P-ATP
Record form. Attribute: IC50 PI3Ka. Fill in for each entry.
# number only, unit nM dropped from output

Request body: readout IC50 PI3Ka, system PI3Kalpha (Homo sapiens (Human), UniProt P42336), query Cc1ncnc(N2CCC(O)(c3ccccc3)CC2)c1C#Cc1ccc(N)nc1 . Return the value. 22

Enter reported IC50 PI3Ka observed with PI3Kalpha (Homo sapiens (Human), UniProt P42336) for CCc1ncnc(N2CCN(c3ccccc3C(F)(F)F)CC2)c1C#Cc1ccc(N)nc1 1861

Given the entry CCc1ncnc(N2CCN(C(C)=O)CC2)c1C#Cc1ccc(N)nc1 , what IC50 PI3Ka was observed with PI3Kalpha (Homo sapiens (Human), UniProt P42336)? 62

What reported IC50 PI3Ka corresponds to CCc1ncnc(N2CCC(O)(C3CCCCC3)CC2)c1C#Cc1ccc(N)nc1 on PI3Kalpha (Homo sapiens (Human), UniProt P42336)? 189

Field: IC50 PI3Ka (PI3Kalpha (Homo sapiens (Human), UniProt P42336)). Entry: CCc1ncnc(N2CCC(O)(C(C)C)CC2)c1C#Cc1ccc(C)nc1 172

Any idea what IC50 PI3Ka came out for Cc1ncnc(N2CCC(CC(=O)N3CCN(C)CC3)CC2)c1C#Cc1ccc(N)nc1 on PI3Kalpha (Homo sapiens (Human), UniProt P42336)? 96

Which measured IC50 PI3Ka belongs to CCc1ncnc(N2CCN(c3ccccc3)CC2)c1C#Cc1ccc(N)nc1 , tested on PI3Kalpha (Homo sapiens (Human), UniProt P42336)? 129

Requested read-out IC50 PI3Ka, target or system PI3Kalpha (Homo sapiens (Human), UniProt P42336), entry COCCC(=O)NCC1CCN(c2ncnc(C)c2C#Cc2ccc(N)nc2)CC1 69

Item Cc1ncnc(N2C[C@@H](C)O[C@@H](C)C2)c1C#Cc1ccc(N)nc1 with PI3Kalpha (Homo sapiens (Human), UniProt P42336) - IC50 PI3Ka? 34

###

experimental_readout: pIC50
Entry type: numeric. Quantity: pIC50, the -log10 of concentration in molar units.

Return pIC50 measured with mTOR (Homo sapiens (Human), UniProt P42345) given this compound: CCc1ncnc(N2CCN(c3cccnc3)CC2)c1C#Cc1ccc(N)nc1 7.85

Recall the recorded pIC50 for CCc1ncnc(N2CCN(c3ccccc3C(F)(F)F)CC2)c1C#Cc1ccc(N)nc1 with mTOR (Homo sapiens (Human), UniProt P42345) and state it. 5.70

Give pIC50 (mTOR (Homo sapiens (Human), UniProt P42345)) of the following compound: CCc1ncnc(N2CCn3c(C)cnc3C2)c1C#Cc1ccc(N)nc1 7.51

Write down the reported pIC50 of CCc1ncnc(N2CCC3(CCN(C(C)=O)CC3)CC2)c1C#Cc1ccc(N)nc1 , test system: mTOR (Homo sapiens (Human), UniProt P42345). 7.52

Give mTOR (Homo sapiens (Human), UniProt P42345) pIC50 for Cc1ncnc(N2CCN(C(=O)c3ccno3)CC2)c1C#Cc1ccc(N)nc1 7.26

Provide value of pIC50 for this record tested with mTOR (Homo sapiens (Human), UniProt P42345): CCc1ncnc(N2CCOCC2)c1C#Cc1ccc(N)nc1 7.03

Reported pIC50 for mTOR (Homo sapiens (Human), UniProt P42345), given CCc1ncnc(N2CCC(OC)CC2)c1C#Cc1ccc(C)nc1 ? 6.91

API: value(readout=pIC50, system=mTOR (Homo sapiens (Human), UniProt P42345)) for record COCCNC(=O)CC1CCN(c2ncnc(C)c2C#Cc2ccc(N)nc2)CC1 6.84

What value of pIC50 on mTOR (Homo sapiens (Human), UniProt P42345) does Cc1ncnc(N2CCN(C3CC3)CC2)c1C#Cc1ccc(N)nc1 have? 8.00

Request - read-out pIC50 | tested on mTOR (Homo sapiens (Human), UniProt P42345) | compound CCc1ncnc(N2CCN(CCCS(C)(=O)=O)CC2)c1C#Cc1ccc(N)nc1 7.60

API: value(readout=pIC50, system=mTOR (Homo sapiens (Human), UniProt P42345)) for record CCc1ncnc(N2CCN(Cc3nc(C)c(C)o3)CC2)c1C#Cc1ccc(N)nc1 6.59

Any idea what pIC50 came out for CCc1ncnc(N2CCN(C(=O)c3ccccc3)CC2)c1C#Cc1ccc(N)nc1 on mTOR (Homo sapiens (Human), UniProt P42345)? 6.80

# returns recorded pIC50 (system: mTOR (Homo sapiens (Human), UniProt P42345)) for CCc1ncnc(N2CCC(O)(C(C)C)CC2)c1C#Cc1ccc(C)nc1 7.64

Given the entry CCc1ncnc(N2CCC(O)(CC)CC2)c1C#Cc1ccc(C)nc1 , what pIC50 was observed with mTOR (Homo sapiens (Human), UniProt P42345)? 7.29

# query: pIC50 | item CCNC(=O)CC1CCN(c2ncnc(C)c2C#Cc2ccc(N)nc2)CC1 | system: mTOR (Homo sapiens (Human), UniProt P42345) 7.24

Observed pIC50 on mTOR (Homo sapiens (Human), UniProt P42345) for CC(=O)NC1CCCN(c2ncnc(C)c2C#Cc2ccc(N)nc2)C1 (stereo not drawn) , please. 7.34

For mTOR (Homo sapiens (Human), UniProt P42345), provide pIC50 of CCc1ncnc(N2CCN(CC(C)(C)O)CC2)c1C#Cc1ccc(N)nc1 please. 8.15

What is its pIC50 for mTOR (Homo sapiens (Human), UniProt P42345)? Entry: CCc1ncnc(N2CCN(C(C)=O)CC2)c1C#Cc1ccc(N)nc1 7.49

###

# target_or_test_system: PI3Kalpha (Homo sapiens (Human), UniProt P42336)
# test: Inhibition of PI3Kalpha-induced PIP-2 phosphorylation (filter-binding assay)
# Format: biochemical
# experimental_context: 33P-ATP
Could you please report measured IC50 PI3Ka for the items listed next?
Please state the figure in µM; there is no need to write the unit.

Form field: reported IC50 PI3Ka of CCc1ncnc(N2CCC(C=C(C)C)CC2)c1C#Cc1ccc(N)nc1 0.622

Report IC50 PI3Ka for CCc1ncnc(N2CCc3ccccc3C2)c1C#Cc1ccc(N)nc1 please. 0.056

IC50 PI3Ka for CCc1ncnc(N2CCC3(CC2)OCCO3)c1C#Cc1ccc(N)nc1 ? 0.057

Which IC50 PI3Ka is listed for CCc1ncnc(N2CCNC(=O)C2)c1C#Cc1ccc(N)nc1 [Example H-5] ? 0.745

What does the record list as IC50 PI3Ka for CCc1ncnc(N2CCC(OCCOC)CC2)c1C#Cc1ccc(N)nc1 ? 0.089

Using the record for CCc1ncnc(N2CCN(CC(C)O)CC2)c1C#Cc1ccc(N)nc1 (stereo not shown) , report its IC50 PI3Ka. 0.152

Any idea what its IC50 PI3Ka is? The compound is CCc1ncnc(N2CCN(C(=O)OC)CC2)c1C#Cc1ccc(N)nc1 0.052

Fill in the blank: the reported IC50 PI3Ka of CCc1ncnc(N2CCNC(=O)C2)c1C#Cc1ccc(N)nc1 [Example H-4] is ____. 0.058

For the compound shown here, Cc1ncnc(N2CCC3(CCNC3=O)CC2)c1C#Cc1ccc(N)nc1 , give the reported IC50 PI3Ka. 0.032

Name the recorded IC50 PI3Ka for Cc1ncnc(N2CCC(CC(C)(C)O)CC2)c1C#Cc1ccc(N)nc1 . 0.029

Bench note: what IC50 PI3Ka did CCc1ncnc(N2CCC(C)(O)CC2)c1C#Cc1ccc(N)nc1 show? 0.036

Entry Cc1ncnc(N2CCC(CC(=O)N(C)CCN(C)C)CC2)c1C#Cc1ccc(N)nc1 : reported IC50 PI3Ka = ? 2.001

Look up IC50 PI3Ka: CCc1ncnc(N2CCN(CCN3CCOCC3)CC2)c1C#Cc1ccc(N)nc1 0.449

Could you tell me which IC50 PI3Ka is on file for Cc1ncnc(N2CCC(CNC(=O)CC(C)C)CC2)c1C#Cc1ccc(N)nc1 ? 0.047

Param item = COC1CCN(c2ncnc(C)c2C#Cc2ccc(N)nc2)CC1 ; retrieve measured IC50 PI3Ka. 0.037

Query (compound): CCc1ncnc(N2CCC(O)(C(C)C)CC2)c1C#Cc1ccc(N)nc1 ; field requested: IC50 PI3Ka 0.015

Field request: IC50 PI3Ka | item: CCc1ncnc(N2CCC3(CCN(C)C3=O)CC2)c1C#Cc1ccc(N)nc1 0.067

// query IC50 PI3Ka value for entry CCc1ncnc(N2CCC(NC(C)=O)CC2)c1C#Cc1ccc(N)nc1 0.083

# input compound: Cc1ncnc(N2CCC(CNC(=O)CC3CCCC3)CC2)c1C#Cc1ccc(N)nc1 ; wanted: its IC50 PI3Ka 0.039
